molecular target: Human serum albumin (HSA) (Homo sapiens, UniProt P02768); experiment: fluorescence quenching titration
Sequence (P02768 25-609): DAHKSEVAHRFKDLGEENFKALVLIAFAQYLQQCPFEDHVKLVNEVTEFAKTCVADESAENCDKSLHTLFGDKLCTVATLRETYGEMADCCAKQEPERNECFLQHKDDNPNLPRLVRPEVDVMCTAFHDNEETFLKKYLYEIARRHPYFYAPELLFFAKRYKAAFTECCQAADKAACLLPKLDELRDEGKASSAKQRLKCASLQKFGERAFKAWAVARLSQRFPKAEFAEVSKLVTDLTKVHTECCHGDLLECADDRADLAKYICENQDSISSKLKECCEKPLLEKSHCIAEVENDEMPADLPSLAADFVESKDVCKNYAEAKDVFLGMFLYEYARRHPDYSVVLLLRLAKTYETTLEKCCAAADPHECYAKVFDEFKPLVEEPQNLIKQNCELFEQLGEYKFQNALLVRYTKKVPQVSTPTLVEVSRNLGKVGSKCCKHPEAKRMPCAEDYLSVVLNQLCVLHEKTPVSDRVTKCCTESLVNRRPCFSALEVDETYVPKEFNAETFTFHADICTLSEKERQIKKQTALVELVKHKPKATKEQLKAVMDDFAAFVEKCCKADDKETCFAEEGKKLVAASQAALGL
reportedProperty: pKd
Convention used: pKd is expressed as -log10 of the molar concentration.

Lookup: pKd / Human serum albumin (HSA) (Homo sapiens, UniProt P02768) / CCCCCCCCc1ccc(CCC(N)(CO)CO)cc1 [Fingolimod]
3.63

Value source: paper PMC10182447
